Source of measurements: the supplement of paper PMC3937590

# System: UACC812
# test_name: -log10 GI50 (growth inhibition 50%) (-log10(M)); higher = more potent growth inhibition
# if value of -log10 GI50 reaches 6, tag Satisfied; if it stays below, tag Not satisfied

[[record]]
compound = "CCN(CC)C(=S)SSC(=S)N(CC)CC"
target_under_test = "UACC812"
discrete_label = "Satisfied"

[[record]]
compound = "Nc1ccn([C@@H]2O[C@H](CO)[C@@H](O)C2(F)F)c(=O)n1"
target_under_test = "UACC812"
discrete_label = "Satisfied"

[[record]]
compound = "O=S(=O)(CC1CS1)c1ccc(Oc2ccccc2)cc1 (configuration not stated)"
target_under_test = "UACC812"
discrete_label = "Not satisfied"

[[record]]
compound = "O=C(O)c1ccc(-c2c[nH]c3ncc(-c4ccccc4)cc23)cc1C1CCCC1"
target_under_test = "UACC812"
discrete_label = "Not satisfied"

[[record]]
compound = "Cc1cc(Nc2cc(N3CCN(C)CC3)nc(Sc3ccc(NC(=O)C4CC4)cc3)n2)n[nH]1"
target_under_test = "UACC812"
discrete_label = "Not satisfied"

[[record]]
compound = "Cc1cncc2cccc(S(=O)(=O)N3CCCN(C(=O)CN)C[C@@H]3C)c12"
target_under_test = "UACC812"
discrete_label = "Not satisfied"

[[record]]
compound = "Cn1cnc2c(F)c(Nc3ccc(Br)cc3Cl)c(C(=O)NOCCO)cc21"
target_under_test = "UACC812"
discrete_label = "Not satisfied"

[[record]]
compound = "O=c1[nH]c2ccccc2n1C1CCN(Cc2ccc(-c3[nH]c4cc5ncnc5cc4nc3-c3ccccc3)cc2)CC1"
target_under_test = "UACC812"
discrete_label = "Not satisfied"

[[record]]
compound = "Cn1ncc(Cl)c1-c1cc(C(=O)N[C@H](CN)Cc2ccc(F)c(F)c2)oc1Cl"
target_under_test = "UACC812"
discrete_label = "Satisfied"

[[record]]
compound = "COC1=C2C[C@@H](C)C[C@H](OC)[C@H](O)[C@@H](C)/C=C(\\C)[C@H](OC(N)=O)[C@@H](OC)/C=C\\C=C(/C)C(=O)NC(=CC1=O)C2=O"
target_under_test = "UACC812"
discrete_label = "Satisfied"

[[record]]
compound = "CCNCCCNC/C=C\\CNCCCNCC"
target_under_test = "UACC812"
discrete_label = "Not satisfied"

[[record]]
compound = "Cc1c(O)cccc1C(=O)N[C@@H](CSc1ccccc1)[C@H](O)CN1C[C@H]2CCCC[C@H]2C[C@H]1C(=O)NC(C)(C)C"
target_under_test = "UACC812"
discrete_label = "Not satisfied"

[[record]]
compound = "O=C(/C=C/C#Cc1cccc(NS(=O)(=O)c2ccccc2)c1)NO"
target_under_test = "UACC812"
discrete_label = "Not satisfied"

[[record]]
compound = "CS(=O)(=O)CCNCc1ccc(-c2ccc3ncnc(Nc4ccc(OCc5cccc(F)c5)c(Cl)c4)c3c2)o1"
target_under_test = "UACC812"
discrete_label = "Satisfied"

[[record]]
compound = "N#Cc1c(-c2ccccc2)cc(-c2cc(Br)ccc2O)[nH]c1=O"
target_under_test = "UACC812"
discrete_label = "Not satisfied"

[[record]]
compound = "O=C1NC(=O)/C(=C/c2ccc3nccc(-c4ccncc4)c3c2)S1"
target_under_test = "UACC812"
discrete_label = "Satisfied"

[[record]]
compound = "CSCC[C@H](NC(=O)[C@H](Cc1ccccc1)NC[C@@H](NC[C@@H](N)CS)C(C)C)C(=O)O"
target_under_test = "UACC812"
discrete_label = "Not satisfied"

[[record]]
compound = "CO[C@H]1C[C@@H]2CC[C@@H](C)[C@@](O)(O2)C(=O)C(=O)N2CCCC[C@H]2C(=O)O[C@H]([C@H](C)C[C@@H]2CC[C@@H](OCCO)[C@H](OC)C2)CC(=O)[C@H](C)/C=C(\\C)[C@@H](O)[C@@H](OC)C(=O)[C@H](C)C[C@H](C)/C=C/C=C/C=C/1C"
target_under_test = "UACC812"
discrete_label = "Satisfied"

[[record]]
compound = "O=c1[nH]cc(F)c(=O)[nH]1"
target_under_test = "UACC812"
discrete_label = "Not satisfied"

[[record]]
compound = "Cc1[nH]c2ccccc2c1CCNCc1ccc(/C=C/C(=O)NO)cc1"
target_under_test = "UACC812"
discrete_label = "Satisfied"

[[record]]
compound = "CC(=O)O[C@@]12CO[C@@H]1C[C@H](O)[C@@]1(C)C(=O)[C@H](O)C3=C(C)[C@@H](OC(=O)[C@H](O)[C@@H](NC(=O)OC(C)(C)C)c4ccccc4)C[C@@](O)([C@@H](OC(=O)c4ccccc4)[C@H]21)C3(C)C"
target_under_test = "UACC812"
discrete_label = "Satisfied"

[[record]]
compound = "CC[C@@]1(O)C(=O)OCc2c1cc1n(c2=O)Cc2cc3c(CN(C)C)c(O)ccc3nc2-1"
target_under_test = "UACC812"
discrete_label = "Satisfied"

[[record]]
compound = "COc1ccc(-c2cc3c(C)nc(N)nc3n([C@H]3CC[C@H](OCCO)CC3)c2=O)cn1"
target_under_test = "UACC812"
discrete_label = "Satisfied"

[[record]]
compound = "COc1cc(Nc2c(C#N)cnc3cc(OCCCN4CCN(C)CC4)c(OC)cc23)c(Cl)cc1Cl"
target_under_test = "UACC812"
discrete_label = "Not satisfied"

[[record]]
compound = "NS(=O)(=O)c1ccc(Nc2nc(OCC3CCCCC3)c3[nH]cnc3n2)cc1"
target_under_test = "UACC812"
discrete_label = "Not satisfied"

[[record]]
compound = "O=C1C(Cl)=C(NCCN2CCOCC2)C(=O)c2ncccc21"
target_under_test = "UACC812"
discrete_label = "Not satisfied"

[[record]]
compound = "O=C1NC(=O)/C(=C/c2ccc(-c3ccc(F)cc3O)o2)S1"
target_under_test = "UACC812"
discrete_label = "Not satisfied"

[[record]]
compound = "O=c1[nH]c(=O)n([C@H]2C[C@H](O)[C@@H](CO)O2)cc1F"
target_under_test = "UACC812"
discrete_label = "Not satisfied"

[[record]]
compound = "Nc1nc2[nH]cc(CCc3ccc(C(=O)N[C@@H](CCC(=O)O)C(=O)O)cc3)c2c(=O)[nH]1"
target_under_test = "UACC812"
discrete_label = "Not satisfied"

[[record]]
compound = "C[C@@H](Oc1cc(-c2cnn(C3CCNCC3)c2)cnc1N)c1c(Cl)ccc(F)c1Cl"
target_under_test = "UACC812"
discrete_label = "Not satisfied"

